Measured values drawn from patent US9533991B2 for this set.

OBSERVED PROPERTY: IC50

Form: item CC#CC(=O)N1CC[C@@H](n2nc(-c3ccc(C(=O)Nc4cc(C(F)(F)F)ccn4)cc3)c3c(N)ncnc32)C1 ; test system UniProt:P06239; IC50: 100 to 1000 nM

Hey, UniProt:P06239 data for Nc1ncnc2c1c(-c1ccc(C(=O)Nc3ccccn3)cc1)nn2[C@@H]1CCN(C(=O)C#CCO)C1 : IC50 came out at 100 to 1000 nM

Here CC#CC(=O)N1CCC[C@@H](n2nc(-c3ccc(C(=O)Nc4ccccn4)cc3)c3c(N)ncnc32)C1 was tested on UniProt:P06239, and its IC50 came to 100 to 1000 nM

Query C=CC(=O)N1CC[C@@H](n2nc(-c3ccc(C(=O)Nc4cc(C(F)(F)F)ccn4)cc3)c3c(N)ncnc32)C1 on UniProt:P06239; IC50 returned: 10 to 100 nM

Log: UniProt:P06239, molecule CC#CC(=O)N1CCC[C@@H](n2nc(-c3ccc(C(=O)Nc4cc(C(F)(F)F)ccn4)cc3)c3c(N)ncnc32)C1 , IC50 = 10 to 100 nM

Record for CC#CC(=O)N1CC[C@@H](n2nc(-c3ccc(C(=O)Nc4cc(C)ccn4)cc3)c3c(N)ncnc32)C1 under target or system UniProt:P06239: IC50 reported as 100 to 1000 nM
